Hey, just so you know, these numbers are from the supplement of paper PMC3545927.

Listing of entries alongside the reported furin cleavage Z-score.
target-or-system: furin, P09958;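 also: purified furin at 1:10 enzyme:substrate in 50 mM HEPES pH 7.5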
Sequence (P09958 whole entry): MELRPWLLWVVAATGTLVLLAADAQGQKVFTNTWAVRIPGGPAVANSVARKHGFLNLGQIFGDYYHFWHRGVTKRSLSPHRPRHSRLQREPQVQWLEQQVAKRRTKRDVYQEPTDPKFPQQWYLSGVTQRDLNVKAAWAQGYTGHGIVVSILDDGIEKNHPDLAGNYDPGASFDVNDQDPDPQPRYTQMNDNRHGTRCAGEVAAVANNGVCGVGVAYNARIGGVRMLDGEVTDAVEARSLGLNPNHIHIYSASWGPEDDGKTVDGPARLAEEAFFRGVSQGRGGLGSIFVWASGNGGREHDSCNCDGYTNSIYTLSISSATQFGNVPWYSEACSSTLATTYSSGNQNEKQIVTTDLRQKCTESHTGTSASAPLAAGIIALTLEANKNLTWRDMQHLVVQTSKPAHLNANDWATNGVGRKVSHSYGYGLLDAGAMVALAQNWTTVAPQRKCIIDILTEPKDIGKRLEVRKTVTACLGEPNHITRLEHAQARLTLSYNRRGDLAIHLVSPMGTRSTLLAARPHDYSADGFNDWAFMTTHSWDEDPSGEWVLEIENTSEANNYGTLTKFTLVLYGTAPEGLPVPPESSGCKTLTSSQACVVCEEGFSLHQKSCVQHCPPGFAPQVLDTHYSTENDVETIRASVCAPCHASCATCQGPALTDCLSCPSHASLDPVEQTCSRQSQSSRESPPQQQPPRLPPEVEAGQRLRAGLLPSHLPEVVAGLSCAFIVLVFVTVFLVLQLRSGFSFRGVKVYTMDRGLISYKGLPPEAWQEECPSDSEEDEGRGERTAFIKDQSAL
experimental-details: furin cleavage Z-score vs untreated control; higher = more cleavage, active = 3.5 or more, inactive = 1 or less, 8 variable residues between constant flanks
run-parameters: 15 min
The list shows a part of the results. The true hit rate is not given.
I'd appreciate a reply containing only the number, no unit.

# sequence-content, furin cleavage Z-score
rows = [
    ("CAIIKRSRRGAGNASASA [FS-1344]", 7.38),
    ("CAIRKRDRRGAGNASASA [FS-1016]", 13.2),
    ("CATEMEECSQAGNASASA [HC1798]", -0.469),
    ("CAIIKRSAWEAGNASASA [FS-2408]", -0.224),
    ("CAGNRRRARAAGNASASA [FS-126]", 8.76),
]

Query string: For the sequence shown here, CASKSLSKRSAGNASASA [FS-721] , give the reported furin cleavage Z-score.
Result string: 10.1

Query string: Lookup CAPFVSCQRGAGNASASA [HC1164]
Result string: 0.834
